Test: chemical genetic growth profiling, strain panel (AID 1159580);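 note: tested at 20 µM; growth read once vehicle control cultures reached saturation at 30 °C; 1 = growth at the plate median or of vehicle wells; lower values mean less growth of the strain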
Conditions: S. cerevisiae deletion strains, growth OD, locus YLR418C, strain cdc73
The whole screen tested about 5,500 compounds, of which about 2,000 (36%) were called active. Another 18% or so got no clear call; they are omitted. Cut-off read from the data, not from the text of the source: active = normalized growth mostly below about 0.91 (no sharp cut-off); inconclusive = no clear call, values can overlap the other calls; inactive = mostly above about 0.92. The list shows a part of the results. Where a SMILES comes first, the peptide text is derived from it.
Classes to choose from: active, inactive

1) NC(N)=NCCC[C@@H](NC(=O)[C@@H](N)Cc1ccc(O)cc1)C(=O)O    inactive
2) CO[C@]12C[C@@H](COC(=O)c3cncc(Br)c3)CN(C)[C@@H]1Cc1cn(C)c3cccc2c13    inactive
3) CC(CCC(=O)O)[C@H]1CCC2C3CC[C@@H]4C[C@H](O)CC[C@]4(C)C3CC[C@@]21C (some centres not stated)    active
4) O=c1cc(-c2ccccc2)oc2c(O)c(O)ccc12    active
5) CC(=O)N=c1sc(S(N)(=O)=O)nn1C    inactive

**Query** What call does the record list for Cc1cc(C)cc(OCC2CNC(=O)O2)c1 (configuration not stated) ?
**Result** inactive

**Query** Test call, this compound: NC(N)=NCCCC(NC(=O)C(N)Cc1ccc(O)cc1)C(=O)O (configuration not stated)
**Result** inactive

**Query** Called result for O=C(Nc1ccccc1)c1ccccc1O
**Result** inactive

**Query** Please state the recorded outcome for this compound: NCCCCC(N)C(=O)NC(Cc1ccc(O)cc1)C(=O)NC(CCCCN)C(=O)O (stereo not drawn) (H-Lys-Tyr-Lys-OH; configuration not given here)
**Result** inactive

**Query** Could you kindly confirm the outcome this assay logged for C=C[C@H]1CN2CC[C@H]1C[C@@H]2[C@H](O)c1ccnc2ccccc12 ?
**Result** inactive

**Query** Recorded test call requested for Cc1cc(=O)oc2c(O)c(O)ccc12
**Result** inactive

**Query** What is the recorded call for this compound in the test? O=c1cc(-c2ccccc2)oc2cc(O)cc(O)c12
**Result** active

**Query** Can you look up the reported call for CC(CCC(=O)O)[C@H]1CCC2C3C(C[C@H](O)[C@@]21C)[C@@]1(C)CC[C@@H](O)C[C@H]1C[C@H]3O (some centres not stated) for me?
**Result** inactive

**Query** Tell me the recorded outcome of this test for CC12CC3CC(C)(C1)CC(N)(C3)C2 .
**Result** inactive

**Query** Given O=C(O)c1ccccc1C(=O)Nc1ccc(S(=O)(=O)Nc2nccs2)cc1 , state the outcome it received in this test.
**Result** inactive

**Query** Kindly provide the recorded test outcome for the following compound: Nc1ccn(C2O[C@H](CO)[C@@H](O)[C@H]2O)c(=O)n1 (some centres not stated)
**Result** inactive

**Query** Name the outcome recorded for CN1CC(CNC(=O)OCc2ccccc2)CC2c3cccc4c3c(cn4C)CC21 (configuration not stated) in the assay.
**Result** inactive

**Query** Recorded call for CC[C@H](CCC(C)[C@H]1CCC2C3CCC4C[C@@H](O)CC[C@]4(C)C3CC[C@@]21C)C(C)C (some centres not stated) ?
**Result** inactive

**Query** Would you mind telling me which call this test gave C[C@@H]1O[C@@H](O[C@H]2C[C@@H](O)[C@]3(CO)C4C(CC[C@]3(O)C2)[C@@]2(O)CC[C@H](C3=CC(=O)OC3)[C@@]2(C)C[C@H]4O)[C@H](O)[C@H](O)[C@H]1O (some centres not stated) ?
**Result** inactive

###

Entries annotated with measured normalized growth
Test: chemical genetic growth profiling, strain panel (AID 1159580)
Settings: S. cerevisiae deletion strains, growth OD, locus YLR330W, strain CHS5, hits give low values
The campaign covered roughly 5,500 compounds. About 2,000 (36%) were called active. Another 18% or so got no clear call; they are omitted. Some of the results follow.
Give the figure only, with no unit attached.

Please review the following examples before continuing.
1) CCCC(CCC)C(=O)O    0.992
2) COc1cc2c(cc1/C=C/C(=O)c1cc(OC)c(OC)cc1OC)OCO2    1.02
3) C[C@@H]1O[C@@H](O[C@H]2C[C@@H](O)[C@]3(CO)C4C(CC[C@]3(O)C2)[C@@]2(O)CC[C@H](C3=CC(=O)OC3)[C@@]2(C)C[C@H]4O)[C@H](O)[C@H](O)[C@H]1O (stereo partly specified)    1.01

**Query** Reported normalized growth, molecule O=C(O)c1ccccc1C(=O)Nc1ccc(S(=O)(=O)Nc2nccs2)cc1 : ____
**Result** 1

###

Experiment: chemical genetic growth profiling, strain panel (AID 1159580)
Details: S. cerevisiae deletion strains, growth OD, locus YLL001W, strain dnm1, hits give low values
Hit rate of the full screen: of about 5,500 compounds, about 2,000 (36%) were called active. Not shown: some 18% with an inconclusive outcome. This is one part of the list.
# normalized growth per record follows
Reply briefly: the number, and no unit.

Would you please look over these solved cases?
1. C[C@@H]1O[C@@H](O[C@H]2C[C@@H](O)[C@]3(CO)C4C(CC[C@]3(O)C2)[C@@]2(O)CC[C@H](C3=CC(=O)OC3)[C@@]2(C)C[C@H]4O)[C@H](O)[C@H](O)[C@H]1O (stereo partly drawn)    1.03
2. S=P(N1CC1)(N1CC1)N1CC1    1

For the next question, use this compound.
**Query** Look at this compound and give its reported normalized growth. CSc1ccc2c(c1)N(CCC1CCCCN1C)c1ccccc1S2 (stereo not drawn)
**Result** 0.964

###

Assay: chemical genetic growth profiling, strain panel (AID 1159580);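 note: tested at 20 µM; growth read once vehicle control cultures reached saturation at 30 °C; 1 = growth at the plate median or of vehicle wells; lower values mean less growth of the strain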
Conditions: S. cerevisiae deletion strains, growth OD, locus YJL187C, strain SWE1 (second series), hits give low values
Among all 5,500 compounds or so, about 2,000 (36%) were called active. Roughly 18% stayed inconclusive and do not appear here. This is one part of the list.
This listing pairs molecules with measured normalized growth.
Answer with a number only.

Example molecules with recorded normalized growth:
1. CNCCCN1c2ccccc2CCc2ccccc21    0.998
2. CCN(CC)C(C)CN1c2ccccc2Sc2ccccc21 (stereo not drawn)    0.957
3. CN(C(=O)CN(CCO)CC(=O)N(C)C(C)(C)Cc1ccccc1)C(C)(C)Cc1ccccc1    1.01
4. NNCCc1ccccc1    0.976
5. CN(C)CCC(c1ccc(Br)cc1)c1ccccn1 (stereo not drawn)    0.978
6. COC(=O)CCCOc1ccc(Cl)cc1Cl    1

**Query** What normalized growth value was documented for this molecule, O=C(Nc1ccccc1)Nc1ccccc1 ?
**Result** 0.99

###

Assay: chemical genetic growth profiling, strain panel (AID 1159580);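 note: tested at 20 µM; growth read once vehicle control cultures reached saturation at 30 °C; 1 = growth at the plate median or of vehicle wells; lower values mean less growth of the strain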
Conditions: S. cerevisiae deletion strains, growth OD, locus YPL209C, strain IPL1
The campaign covered roughly 5,500 compounds. About 2,000 (36%) were called active. Another 18% or so got no clear call; they are omitted. Cut-off read from the data, not from the text of the source: active = normalized growth mostly below about 0.91 (no sharp cut-off); inconclusive = no clear call, values can overlap the other calls; inactive = mostly above about 0.92. The list shows a part of the results.
A correct response names exactly one class from 1 = active, -1 = inactive

Reference set (3 entries):
1) CC1C/C(=N/Nc2ccc(Br)cc2)c2cc(Cl)ccc2S1 (configuration not stated)    1
2) S=C(Nc1cc(Cl)c(Cl)cc1Cl)Nc1ccccc1Br    -1
3) O=C(Nc1cccc2ccccc12)c1ccccc1O    1

**Query** Can you look up the reported call for O=S(=O)(Nc1ccc(Oc2ccc(OC(F)(F)F)cc2)cc1)c1cccc(Cl)c1 for me?
**Result** -1

**Query** State the result this test recorded for CS(=O)(=O)/C(C#N)=C/c1ccccc1OCc1c(Cl)cccc1Cl .
**Result** -1

**Query** Test call for this molecule, please: COc1ccc(C(=O)NCc2csc3ccc(Cl)cc23)cc1OC
**Result** -1

**Query** Just curious, what result did CSC(=NNc1ccccc1)NC(=O)c1c(Cl)cccc1Cl get here?
**Result** -1

###

Assay: chemical genetic growth profiling, strain panel (AID 1159580);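 note: tested at 20 µM; growth read once vehicle control cultures reached saturation at 30 °C; 1 = growth at the plate median or of vehicle wells; lower values mean less growth of the strain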
Conditions: S. cerevisiae strains, growth OD, strain wild type
Screen size: about 5,500 compounds; about 2,000 (36%) were called active. Not shown: some 18% with an inconclusive outcome. No stated cut-off is given here; in the data, active means normalized growth mostly below about 0.91 (no sharp cut-off); inconclusive means no clear call, values can overlap the other calls; inactive means mostly above about 0.92. The list shows a part of the results.
Lab note: assign the record to one of t (active), f (inactive)

1) CCc1ccccc1NC(C)=O    f
2) CC(=O)Nc1ccccc1    f
3) COc1ccc(C=C2C(=O)NC(=S)NC2=O)cc1Br    f

**Query** State the result this test recorded for COc1c(Cl)ccc(Cl)c1C(=O)O .
**Result** f

**Query** Each compound tested received a call. Report the one for O=c1cc(-c2ccccc2)oc2cc(O)c(O)c(O)c12 .
**Result** t

**Query** Tell me the assay call for COc1cc(S(C)=O)ccc1-c1nc2ncccc2[nH]1 (configuration not stated) please.
**Result** f

**Query** Short answer needed: outcome of this test for O=C(O)CC(CC(=O)Nc1ccc(I)cc1F)c1ccc(C(F)(F)F)cc1 (configuration not stated) ?
**Result** f

**Query** Can you look up the reported call for COc1ccc(-n2c(-c3ccc(C)cc3)csc2=N)cc1 for me?
**Result** f

**Query** Entry Cc1cc(O)c(C=O)c2c1C(=O)Oc1c(COC(=O)/C=C/C(=O)O)c(O)c(C(=O)O)c(C)c1O2 : call = ?
**Result** t

**Query** How was CN1CCN(C2=Nc3ccccc3Oc3ccc(Cl)cc32)CC1 classified in this test?
**Result** f

**Query** Recorded call for Cc1cc(C)cc(OCC2CNC(=O)O2)c1 (configuration not stated) ?
**Result** f

**Query** Recorded call for O=C1/C(=C/c2ccc(Cl)cc2)COc2ccc(F)cc21 ?
**Result** f
